assayTarget: Adenosine receptor A2a (Homo sapiens) (UniProt P29274)
Sequence (P29274 whole entry): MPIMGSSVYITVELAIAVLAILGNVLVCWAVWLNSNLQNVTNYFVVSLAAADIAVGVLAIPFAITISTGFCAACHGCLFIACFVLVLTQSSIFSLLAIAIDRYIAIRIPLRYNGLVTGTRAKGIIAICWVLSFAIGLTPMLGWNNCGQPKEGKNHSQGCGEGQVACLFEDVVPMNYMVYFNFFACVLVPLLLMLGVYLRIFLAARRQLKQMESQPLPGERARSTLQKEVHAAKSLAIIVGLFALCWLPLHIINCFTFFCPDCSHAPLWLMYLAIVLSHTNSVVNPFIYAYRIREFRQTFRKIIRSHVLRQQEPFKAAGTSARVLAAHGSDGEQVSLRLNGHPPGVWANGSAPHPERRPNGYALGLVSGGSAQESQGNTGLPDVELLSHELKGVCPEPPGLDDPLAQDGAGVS
methodSummary: Displacement of [3H]ZM-241385 from human adenosine A2A receptor expressed in CHO cell membranes at 1 uM
Form field: Activity (one value per entry).
Note: unit % is implicit; provide only the numeric part.

Worked set:
| querySmiles | assayTarget | resultUnits | Activity |
| --- | --- | --- | --- |
| COc1ccc(NC(=O)c2ccnc(NC(=O)c3ccccc3)n2)cc1 | Adenosine receptor A2a (Homo sapiens) (UniProt P29274) | % | 6 |
| Cc1ccc(NC(=O)c2nc(=O)[nH]c3ccccc23)cc1 | Adenosine receptor A2a (Homo sapiens) (UniProt P29274) | % | 2 |
| Nc1nc(C(=O)Nc2ccc(Br)cc2)c2ccccc2n1 | Adenosine receptor A2a (Homo sapiens) (UniProt P29274) | % | 1 |
| Cc1ccc(NC(=O)c2nc(N)nc3ccccc23)cc1 | Adenosine receptor A2a (Homo sapiens) (UniProt P29274) | % | 5 |
| COc1ccc(NC(=O)c2nc(=O)[nH]c3ccccc23)cc1 | Adenosine receptor A2a (Homo sapiens) (UniProt P29274) | % | 1 |

Which measured Activity value corresponds to COc1ccc(NC(=O)c2ccnc(N(C(=O)c3ccccc3)C(=O)c3ccccc3)n2)cc1 ?
1

---

assayTarget: Adenosine receptor A3 (Homo sapiens, UniProt P0DMS8)
Sequence (P0DMS8 whole entry): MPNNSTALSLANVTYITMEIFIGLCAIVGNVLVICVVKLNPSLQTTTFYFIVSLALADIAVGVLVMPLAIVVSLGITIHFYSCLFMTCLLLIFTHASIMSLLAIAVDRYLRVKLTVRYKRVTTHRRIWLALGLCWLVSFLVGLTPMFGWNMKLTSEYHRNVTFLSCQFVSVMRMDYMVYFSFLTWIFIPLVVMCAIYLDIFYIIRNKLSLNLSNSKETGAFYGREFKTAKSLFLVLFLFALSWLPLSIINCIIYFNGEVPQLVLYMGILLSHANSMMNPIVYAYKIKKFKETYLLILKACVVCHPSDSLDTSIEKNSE
methodSummary: Activity at human adenosine A3 receptor expressed in CHO cells assessed as antagonism of Cl-IB-MECA-inhibited cAMP production
observedProperty: pIC50
Notebook: values listed as pIC50 are -log10 of the concentration (mol/L).

Worked set:
| querySmiles | observedProperty | numericValue |
| --- | --- | --- |
| COc1ccc(NC(=O)c2[nH]c(=O)nc3ccccc23)cc1 | pIC50 | 6.90 |
| O=C(Nc1ccccc1)c1[nH]c(=O)nc2ccccc12 | pIC50 | 6.62 |

Query compound follows.
I'm curious: which pIC50 was measured for CC(=O)Nc1nc(C(=O)Nc2ccccc2)c2ccccc2n1 tested on Adenosine receptor A3 (Homo sapiens, UniProt P0DMS8)?
6.85

---

Form field: Activity (one value per entry).
assayTarget: Adenosine receptor A3 (Homo sapiens)
methodSummary: Displacement of [125I]ABMECA from human adenosine A3 receptor expressed in CHO cell membranes at 1 uM
Note: unit % is implicit; provide only the numeric part.

Worked set:
| querySmiles | numericValue |
| --- | --- |
| COc1ccc(NC(=O)c2cc(N)nc3ccccc23)cc1 | 1 |
| Nc1nc(C(=O)NC2CCCCC2)c2ccccc2n1 | 21 |
| COc1ccc(NC(=O)c2ccnc(N)n2)cc1 | 15 |
| COc1ccc(NC(=O)c2ccnc(N(C(=O)c3ccccc3)C(=O)c3ccccc3)n2)cc1 | 14 |
| COc1ccc(NC(=O)c2ccnc(NC(=O)c3ccccc3)n2)cc1 | 22 |

Which measured Activity value corresponds to Nc1cc(C(=O)Nc2ccccc2)c2ccccc2n1 ?
6

Now consider COc1ccc(NC(=O)c2cc(=O)[nH]c3ccccc23)cc1 .
26

Now consider O=C(Nc1ccccc1)c1cc(=O)[nH]c2ccccc12 .
38

---

assayTarget: Adenosine receptor A1 (Homo sapiens)
Sequence (whole entry): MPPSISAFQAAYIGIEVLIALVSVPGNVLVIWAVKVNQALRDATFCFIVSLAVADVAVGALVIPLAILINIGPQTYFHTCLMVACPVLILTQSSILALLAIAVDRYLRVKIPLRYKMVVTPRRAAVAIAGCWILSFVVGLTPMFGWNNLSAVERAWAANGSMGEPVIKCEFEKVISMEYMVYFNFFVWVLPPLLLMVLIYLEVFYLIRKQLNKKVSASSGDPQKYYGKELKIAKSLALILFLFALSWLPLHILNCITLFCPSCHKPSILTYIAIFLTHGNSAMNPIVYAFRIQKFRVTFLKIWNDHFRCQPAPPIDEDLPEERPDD
methodSummary: Displacement of [3H]DPCPX from human adenosine A1 receptor expressed in CHO cell membranes at 1 uM
// F strictly below 3% in Activity; T otherwise

| querySmiles | assignedClass |
| --- | --- |
| Nc1cc(C(=O)Nc2ccccc2)c2ccccc2n1 | F |
| COc1ccc(NC(=O)c2cc(N)nc3ccccc23)cc1 | F |

Confirm if Activity reported for the compound COc1ccc(NC(=O)c2nc(=O)[nH]c3ccccc23)cc1 is 3% or above.
T

Now consider Nc1nc(C(=O)Nc2ccc(Br)cc2)c2ccccc2n1 .
F

Now consider O=C(Nc1ccccc1)c1cc(=O)[nH]c2ccccc12 .
F

Now consider O=C(Nc1nc(C(=O)Nc2ccccc2)c2ccccc2n1)c1ccccc1 .
T

Now consider Cc1ccc(NC(=O)c2nc(=O)[nH]c3ccccc23)cc1 .
T

---

assayTarget: Adenosine receptor A2b (Homo sapiens)
methodSummary: Antagonist activity at human adenosine A2B receptor expressed in CHO cells assessed as inhibition of NECA-stimulated cAMP levels at 1 uM
Assay type: functional, cell-based
// No strictly below 3% in inhibition; Yes otherwise

Observe how each entry below is paired with its result.
| querySmiles | assignedClass |
| --- | --- |
| O=C(Nc1ccc(Br)cc1)c1nc(=O)[nH]c2ccccc12 | No |
| COc1ccc(NC(=O)c2ccnc(NC(=O)c3ccccc3)n2)cc1 | No |
| O=C(Nc1ccccc1)c1cc(=O)[nH]c2ccccc12 | No |

Confirm if inhibition reported for the molecule COc1ccc(NC(=O)c2nc(N)nc3ccccc23)cc1 is 3% or above.
Yes

Now consider Nc1cc(C(=O)Nc2ccccc2)c2ccccc2n1 .
Yes

Now consider Cc1ccc(NC(=O)c2nc(=O)[nH]c3ccccc23)cc1 .
No

---

assayTarget: Adenosine receptor A2a (Homo sapiens) (UniProt P29274)
methodSummary: Displacement of [3H]ZM-241385 from human adenosine A2A receptor expressed in CHO cell membranes at 1 uM
observedProperty: Activity (%)
Note: unit % is implicit; provide only the numeric part.

Worked set:
| querySmiles | Activity / % |
| --- | --- |
| Nc1nc(C(=O)NC2CCCCC2)c2ccccc2n1 | 3 |
| COc1ccc(NC(=O)c2cc(=O)[nH]c3ccccc23)cc1 | 1 |
| O=C(Nc1ccccc1)c1cc(=O)[nH]c2ccccc12 | 1 |
| O=C(Nc1ccc(Br)cc1)c1nc(=O)[nH]c2ccccc12 | 1 |

Which measured Activity value corresponds to O=C(Nc1ccccc1)c1nc(=O)[nH]c2ccccc12 ?
1

Now consider COc1ccc(NC(=O)c2cc(N)nc3ccccc23)cc1 .
3

---

assayTarget: Adenosine receptor A3 (Homo sapiens, UniProt P0DMS8)
observedProperty: Ki (nM)
Note: unit nM is implicit; provide only the numeric part.

Worked set:
| querySmiles | resultUnits | Ki |
| --- | --- | --- |
| Nc1nc(C(=O)Nc2ccc(Br)cc2)c2ccccc2n1 | nM | 550 |
| Cc1ccc(NC(=O)c2nc(N)nc3ccccc23)cc1 | nM | 98.3 |
| COc1ccc(NC(=O)c2[nH]c(=O)nc3ccccc23)cc1 | nM | 19.5 |

I'm curious: which Ki was measured for Cc1ccc(NC(=O)c2[nH]c(=O)nc3ccccc23)cc1 tested on Adenosine receptor A3 (Homo sapiens, UniProt P0DMS8)?
26.7

Now consider Nc1nc(C(=O)Nc2ccccc2)c2ccccc2n1 .
350

Now consider CC(=O)Nc1nc(C(=O)Nc2ccccc2)c2ccccc2n1 .
25.3

Now consider O=C(Nc1nc(C(=O)Nc2ccccc2)c2ccccc2n1)c1ccccc1 .
182

---

Form field: Activity (one value per entry).
assayTarget: Adenosine receptor A1 (Homo sapiens)
Sequence (whole entry): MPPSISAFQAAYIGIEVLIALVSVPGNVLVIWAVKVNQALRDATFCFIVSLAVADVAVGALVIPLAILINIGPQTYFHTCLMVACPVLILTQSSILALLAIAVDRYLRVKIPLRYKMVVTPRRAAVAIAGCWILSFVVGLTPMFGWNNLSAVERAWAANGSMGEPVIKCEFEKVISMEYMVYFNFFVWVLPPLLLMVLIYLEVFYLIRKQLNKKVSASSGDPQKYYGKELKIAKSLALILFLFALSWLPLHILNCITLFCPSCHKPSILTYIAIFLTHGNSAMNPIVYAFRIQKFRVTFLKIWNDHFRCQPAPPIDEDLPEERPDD
methodSummary: Displacement of [3H]DPCPX from human adenosine A1 receptor expressed in CHO cell membranes at 1 uM
Note: unit % is implicit; provide only the numeric part.

Worked set:
| querySmiles | resultUnits | numericValue |
| --- | --- | --- |
| Cc1ccc(NC(=O)c2nc(N)nc3ccccc23)cc1 | % | 3 |
| Nc1nc(C(=O)Nc2ccccc2)c2ccccc2n1 | % | 40 |
| COc1ccc(NC(=O)c2nc(N)nc3ccccc23)cc1 | % | 8 |
| CC(=O)Nc1nc(C(=O)Nc2ccccc2)c2ccccc2n1 | % | 25 |
| O=C(Nc1ccccc1)c1nc(=O)[nH]c2ccccc12 | % | 22 |

Which measured Activity value corresponds to COc1ccc(NC(=O)c2ccnc(N(C(=O)c3ccccc3)C(=O)c3ccccc3)n2)cc1 ?
5

Now consider COc1ccc(NC(=O)c2ccnc(NC(=O)c3ccccc3)n2)cc1 .
6
